assay: Mouse pharmacokinetic study, intravenous dosing; format: in vivo; conditions: male, C57BL/6, mouse, iv; plasma, 10 mg/kg i.v., time 2 h; read-out: Parent compound concentration following intravenous administration
quantity: concentration at 2 h (ng/mL)
The reply should be a number in ng/mL, with the unit left off.

For orientation, consider the following solved cases.
structure | quantitative_result
C=C(CC(=O)OC1CCCCCCC1)C(=O)OCC(=O)O | 3.6
C=C(CC(=O)O[C@@H](C)CCCCCC)C(=O)OCCC(=O)O | 6.5
C=C(CC(=O)O[C@@H](C)CCCCCC)C(=O)OCC(=O)O | 65
C=C(CC(=O)OC(CCCC)CCCC)C(=O)OCC(=O)O | 32
C=C(CC(=O)O[C@H](C)CCCCCC)C(=O)OCc1nn[nH]n1 | 5.1

concentration at 2 h reading for C=C(CC(=O)O[C@H](CC)CCCCC)C(=O)OCC(=O)O : 61

concentration at 2 h reading for C=C(CC(=O)OC1CCCCC1)C(=O)OCc1nnn[nH]1 : 3

###

test: Mouse pharmacokinetic study, oral administration; type: in vivo; details: male, C57BL/6, mouse, plasma, po, 100 mg/kg, plasma, male C57BL/6 mice, oral gavage 100 mg/kg, 6 h; read-out: Parent compound concentrations following oral administration, Time 6 h
Entry flag: Condition met if concentration at 6 h reaches 600 ng/mL; Condition not met if it does not.

Recorded results for 7 compounds are shown here.
compound | cat
C=C(CC(=O)O[C@H](C)CCCCCC)C(=O)OCCC(=O)O | Condition met
C=C(CC(=O)OC1C(C)(C)CC1(C)C)C(=O)OCC(=O)O | Condition not met
C=C(CC(=O)OC1CCCCCCC1)C(=O)OC(C)c1nnn[nH]1 (stereo not drawn) | Condition not met
C=C(CC(=O)OC1CCCCCCC1)C(=O)OCC(=O)O | Condition met
C=C(CC(=O)OC1CCCCCCC1)C(=O)OCCC(=O)O | Condition not met
C=C(CC(=O)O[C@H](C)CCCCCC)C(=O)OCC(=O)O | Condition met
C=C(CC(=O)OC(CCCC)CCCC)C(=O)OCC(=O)O | Condition met

# check: concentration at 6 h of C=C(CC(=O)O[C@@H](CCCCCC)C(F)(F)F)C(=O)OCC(=O)O is greater than or equal to 600 ng/mL
Condition met

###

assay: Mouse pharmacokinetic study, oral administration; assay type: in vivo; conditions: male, C57BL/6, mouse, plasma, po, 100 mg/kg, plasma, male C57BL/6 mice, oral gavage 100 mg/kg, 2 h; read-out: Parent compound concentrations following oral administration, Time 2 h
Entry flag: TRUE if concentration at 2 h reaches 800 ng/mL; FALSE if it does not.

molecule | cat
C=C(CC(=O)O[C@H](CC)CCCCC)C(=O)OCC(=O)O [Example 178] | TRUE

# check: concentration at 2 h of C=C(CC(=O)OC1CCCCCCC1)C(=O)OC(C)c1nnn[nH]1 (centres unmarked) [Example 133] is greater than or equal to 800 ng/mL
FALSE

# check: concentration at 2 h of C=C(CC(=O)OCCCOc1ccccc1)C(=O)OCCC(=O)O [Example 86] is greater than or equal to 800 ng/mL
FALSE

# check: concentration at 2 h of C=C(CC(=O)OC1CCCCCCC1)C(=O)OCC(=O)O [Example 90] is greater than or equal to 800 ng/mL
TRUE

# check: concentration at 2 h of C=C(CC(=O)OCCCCCCCC)C(=O)OCCC(=O)O [Example 80] is greater than or equal to 800 ng/mL
FALSE

# check: concentration at 2 h of C=C(CC(=O)O[C@@H](CC)CCCCC)C(=O)OCC(=O)O [Example 170] is greater than or equal to 800 ng/mL
TRUE

# check: concentration at 2 h of C=C(CC(=O)O[C@@H](C)CCCCCC)C(=O)OCCC(=O)O [Example 84] is greater than or equal to 800 ng/mL
TRUE

# check: concentration at 2 h of C=C(CC(=O)OC1CCCCCCC1)C(=O)OCCC(=O)O [Example 82] is greater than or equal to 800 ng/mL
TRUE

# check: concentration at 2 h of C=C(CC(=O)O[C@H](C)CCCCCC)C(=O)OCc1nn[nH]n1 [Example 161] is greater than or equal to 800 ng/mL
FALSE

Value source: patent US12390437B2
